Hey, just so you know, these numbers are from patent US9757379B2.

- targetOfAssay: HIF-2α PAS-B (Homo sapiens)
- methodNotes: Isothermal titration calorimetry (ITC) on HIF-2α PAS-B
- setupConditions: read-out: ITC Kd
Please respond with Condition met when measured Kd is strictly beneath 600 nM, and with Condition not met in all other cases.

Decide: Kd of `CNS(=O)(=O)c1c(Nc2cc(F)cc(Cl)c2)ccc2nonc12` strictly below 600 nM?
Condition not met

Decide: Kd of `O=[N+]([O-])c1c(Nc2cccc(Cl)c2)ccc2nonc12` strictly below 600 nM?
Condition met

Decide: Kd of `O=[N+]([O-])c1c(NCc2cc(F)cc(Cl)c2)ccc2nonc12` strictly below 600 nM?
Condition not met

Decide: Kd of `O=[N+]([O-])c1cc(Nc2ccc3nonc3c2[N+](=O)[O-])ccc1Cl` strictly below 600 nM?
Condition not met

Decide: Kd of `CN(C)S(=O)(=O)c1c(Nc2cc(F)cc(Cl)c2)ccc2nonc12` strictly below 600 nM?
Condition not met

Decide: Kd of `O=[N+]([O-])c1c(NCc2ccc(F)cc2Cl)ccc2nonc12` strictly below 600 nM?
Condition met

Decide: Kd of `O=[N+]([O-])c1c(Nc2cccc(C(F)(F)F)c2)ccc2nonc12` strictly below 600 nM?
Condition not met

Decide: Kd of `O=[N+]([O-])c1c(Nc2cc(F)cc(C(F)(F)F)c2)ccc2nonc12` strictly below 600 nM?
Condition met

Decide: Kd of `O=[N+]([O-])c1c(Nc2ccc(Cl)c(Cl)c2)ccc2nonc12` strictly below 600 nM?
Condition met

Decide: Kd of `O=[N+]([O-])c1c(Nc2cccc(Cl)c2F)ccc2nonc12` strictly below 600 nM?
Condition not met

====

recordedMetric: Kd

# query: Kd | item `O=[N+]([O-])c1c(Nc2cc(F)cc(Cl)c2)ccc2nonc12` | system: UniProt Q16665
> 5 µM

====

- targetOfAssay: HIF-2α PAS-B*/ARNT PAS-B* heterodimer (Homo sapiens, UniProt Q99814, R247E)
- Sequence (Q99814 240-350 R247E, one chain of several): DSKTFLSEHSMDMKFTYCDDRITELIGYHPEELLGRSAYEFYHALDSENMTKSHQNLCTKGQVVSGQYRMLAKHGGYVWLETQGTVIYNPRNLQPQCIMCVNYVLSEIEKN
- methodNotes: AlphaScreen, HIF-2α PAS-B*/ARNT PAS-B* heterodimerization
recordedMetric: pIC50
pIC50 here is simply -log10 of the concentration when that concentration is written in mol/L.

# query: pIC50 | item O=[N+]([O-])c1c(Nc2cc(F)cc(C(F)(F)F)c2)ccc2nonc12 [Compound 10] | system: HIF-2α PAS-B*/ARNT PAS-B* heterodimer (Homo sapiens, UniProt Q99814, R247E)
6.37

# query: pIC50 | item Fc1cc(Br)cc([C@@H]2C[C@H](c3ccccc3)n3nnnc3N2)c1 [Compound 49] | system: HIF-2α PAS-B*/ARNT PAS-B* heterodimer (Homo sapiens, UniProt Q99814, R247E)
6.46

# query: pIC50 | item Fc1cc(Br)cc([C@@H]2C[C@H](c3cccc(Br)c3)n3nnnc3N2)c1 [Compound 47] | system: HIF-2α PAS-B*/ARNT PAS-B* heterodimer (Homo sapiens, UniProt Q99814, R247E)
7.00

# query: pIC50 | item Clc1ccc(Br)cc1[C@H]1C[C@@H](c2cccc(Br)c2)Nc2nnnn21 [Compound 60] | system: HIF-2α PAS-B*/ARNT PAS-B* heterodimer (Homo sapiens, UniProt Q99814, R247E)
6.40

# query: pIC50 | item O=[N+]([O-])c1c(Nc2cc(F)cc(Cl)c2)ccc2nonc12 [Compound 1] | system: HIF-2α PAS-B*/ARNT PAS-B* heterodimer (Homo sapiens, UniProt Q99814, R247E)
7.00

# query: pIC50 | item O=[N+]([O-])c1c(Nc2ccc(Cl)c(C(F)(F)F)c2)ccc2nonc12 [Compound 9] | system: HIF-2α PAS-B*/ARNT PAS-B* heterodimer (Homo sapiens, UniProt Q99814, R247E)
7.05

# query: pIC50 | item Clc1ccccc1[C@@H]1C[C@H](c2cccc(Br)c2)Nc2nnnn21 (racemic) [Compound 51] | system: HIF-2α PAS-B*/ARNT PAS-B* heterodimer (Homo sapiens, UniProt Q99814, R247E)
6.52

# query: pIC50 | item O=[N+]([O-])c1c(NCc2ccc(F)cc2Cl)ccc2nonc12 [Compound 2] | system: HIF-2α PAS-B*/ARNT PAS-B* heterodimer (Homo sapiens, UniProt Q99814, R247E)
6.48

# query: pIC50 | item Brc1cccc([C@H]2C[C@@H](c3ccccc3Br)n3nnnc3N2)c1 (racemic) [Compound 54] | system: HIF-2α PAS-B*/ARNT PAS-B* heterodimer (Homo sapiens, UniProt Q99814, R247E)
6.70

# query: pIC50 | item O=[N+]([O-])c1c(Nc2cccc(Cl)c2)ccc2nonc12 [Compound 5] | system: HIF-2α PAS-B*/ARNT PAS-B* heterodimer (Homo sapiens, UniProt Q99814, R247E)
6.74

# query: pIC50 | item Fc1ccc(Cl)c(F)c1[C@@H]1C[C@H](c2cccc(Br)c2)Nc2nnnn21 (racemic) [Compound 61] | system: HIF-2α PAS-B*/ARNT PAS-B* heterodimer (Homo sapiens, UniProt Q99814, R247E)
6.70

====

Kindly supply the reported pKd values for the records listed here.
- targetOfAssay: HIF-2α PAS-B (Homo sapiens)
- methodNotes: Isothermal titration calorimetry (ITC) on HIF-2α PAS-B
pKd here is simply -log10 of the concentration when that concentration is written in mol/L.

Data request, read-out pKd, for `Brc1cccc([C@@H]2C[C@H](c3cccc(Br)c3)n3nnnc3N2)c1`
7.05

Data request, read-out pKd, for `Fc1ccc(Br)c(F)c1[C@H]1C[C@@H](c2cccc(Br)c2)Nc2nnnn21`
7.36

Data request, read-out pKd, for Brc1cccc([C@H]2C[C@@H](c3ccccc3I)n3nnnc3N2)c1 (racemic)
6.06

====

- targetOfAssay: HIF-2α PAS-B*/ARNT PAS-B* heterodimer (Homo sapiens, UniProt Q99814, R247E)
- methodNotes: AlphaScreen, HIF-2α PAS-B*/ARNT PAS-B* heterodimerization;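 further: GST-tagged HIF-2α PAS-B* and FLAG-tagged ARNT PAS-B* with glutathione donor and anti-FLAG acceptor beads, luminescence after 680 nm excitation, loss of signal indicating disrupted heterodimer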
Please respond with rule met when measured IC50 is strictly beneath 200 nM, and with rule not met in all other cases.

Decide: IC50 of `Clc1ccccc1[C@H]1C[C@@H](c2cccc(Br)c2)Nc2nnnn21` strictly below 200 nM?
rule not met

Decide: IC50 of `O=[N+]([O-])c1c(Nc2cccc(C(F)(F)F)c2)ccc2nonc12` strictly below 200 nM?
rule not met

Decide: IC50 of `COc1cccc(Nc2ccc3nonc3c2[N+](=O)[O-])c1` strictly below 200 nM?
rule not met

Decide: IC50 of `Brc1cccc([C@@H]2C[C@H](c3cccc(Br)c3)n3nnnc3N2)c1` strictly below 200 nM?
rule met

Decide: IC50 of `O=[N+]([O-])c1c(NCc2ccc(Cl)cc2)ccc2nonc12` strictly below 200 nM?
rule not met

Decide: IC50 of `Nc1c(Nc2cc(F)cc(Cl)c2)ccc2nonc12` strictly below 200 nM?
rule not met

Decide: IC50 of `O=[N+]([O-])c1c(Nc2cc(F)cc(Cl)c2)ccc2nn[nH]c12` strictly below 200 nM?
rule not met

Decide: IC50 of `Fc1ccc(Br)c(F)c1[C@H]1C[C@@H](c2cccc(Br)c2)Nc2nnnn21` strictly below 200 nM?
rule met

Decide: IC50 of `O=[N+]([O-])c1c(Nc2ccc(Br)c(F)c2)ccc2nonc12` strictly below 200 nM?
rule met

Decide: IC50 of `Clc1cccc([C@H]2C[C@@H](c3cccc(Br)c3)Nc3nnnn32)c1` strictly below 200 nM?
rule met

Decide: IC50 of Brc1cccc([C@H]2C[C@@H](c3ccccc3I)n3nnnc3N2)c1 (racemic) strictly below 200 nM?
rule not met

Decide: IC50 of `O=[N+]([O-])c1c(Nc2cccc(Cl)c2F)ccc2nonc12` strictly below 200 nM?
rule not met

Decide: IC50 of `O=[N+]([O-])c1c(Nc2cc(F)cc(Cl)c2)ccc2[nH]cnc12` strictly below 200 nM?
rule not met

Decide: IC50 of Fc1ccccc1[C@@H]1C[C@H](c2cccc(Br)c2)Nc2nnnn21 (racemic) strictly below 200 nM?
rule not met

Decide: IC50 of `O=[N+]([O-])c1c(Nc2ccc(Cl)c(Cl)c2)ccc2nonc12` strictly below 200 nM?
rule met

====

- targetOfAssay: HIF-2α PAS-B (Homo sapiens, UniProt Q99814)
- Sequence (Q99814 240-350): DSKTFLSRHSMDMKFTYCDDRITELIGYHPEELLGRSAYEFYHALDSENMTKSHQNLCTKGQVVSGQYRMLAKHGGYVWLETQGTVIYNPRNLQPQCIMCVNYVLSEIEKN
- methodNotes: Isothermal titration calorimetry (ITC) on HIF-2α PAS-B;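 further: Wild-type protein (200 µM) titrated into 5-10 µM compound, heats of dilution from a compound-free titration subtracted, isotherms fit to a single-site model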
Kindly supply the reported pKd values for the records listed here.
pKd here is simply -log10 of the concentration when that concentration is written in mol/L.

Data request, read-out pKd, for O=[N+]([O-])c1c(Nc2ccc(Cl)c(C(F)(F)F)c2)ccc2nonc12 [Compound 9]
6.59

Data request, read-out pKd, for O=[N+]([O-])c1c(NCc2ccc(F)cc2C(F)(F)F)ccc2nonc12 [Compound 4]
6.28

Data request, read-out pKd, for O=[N+]([O-])c1cccc(Nc2ccc3nonc3c2[N+](=O)[O-])c1 [Compound 27]
5.37

Data request, read-out pKd, for Fc1c(Cl)cccc1[C@@H]1C[C@H](c2cccc(Br)c2)Nc2nnnn21 (racemic) [Compound 59]
7.38

Data request, read-out pKd, for O=[N+]([O-])c1ccccc1Nc1cc(F)cc(Cl)c1 (racemic) [Compound 33]
5.37

Data request, read-out pKd, for Clc1ccccc1[C@H]1C[C@@H](c2cccc(Br)c2)Nc2nnnn21 [Compound 52]
6.47

Data request, read-out pKd, for Fc1c(Br)ccc(Br)c1[C@H]1C[C@@H](c2cccc(Br)c2)Nc2nnnn21 [Compound 63]
7.51

Data request, read-out pKd, for Fc1cc(Br)cc([C@@H]2C[C@H](c3ccccc3)n3nnnc3N2)c1 [Compound 49]
6.57

Data request, read-out pKd, for Fc1cc(Br)cc([C@@H]2C[C@H](c3cccc(Br)c3)n3nnnc3N2)c1 [Compound 47]
7.08

Data request, read-out pKd, for Fc1ccc(Cl)c(F)c1[C@@H]1C[C@H](c2cccc(Br)c2)Nc2nnnn21 (racemic) [Compound 61]
7.49

Data request, read-out pKd, for O=[N+]([O-])c1c(Nc2ccc(Br)c(F)c2)ccc2nonc12 [Compound 7]
6.66

Data request, read-out pKd, for O=[N+]([O-])c1c(Nc2cccc(F)c2)ccc2nonc12 [Compound 28]
5.68

Data request, read-out pKd, for Clc1ccccc1[C@@H]1C[C@H](c2cccc(Br)c2)Nc2nnnn21 (racemic) [Compound 51]
6.36

Data request, read-out pKd, for Fc1ccccc1[C@@H]1C[C@H](c2cccc(Br)c2)Nc2nnnn21 (racemic) [Compound 50]
6.12

Data request, read-out pKd, for CC(C)C[C@@H]1C[C@H](c2cccc(Br)c2)Nc2nnnn21 (racemic) [Compound 64]
6.03

Data request, read-out pKd, for O=[N+]([O-])c1c(Nc2cc(F)cc(F)c2)ccc2nonc12 [Compound 11]
5.68
